# Lookup of reported inhibition keyed by entry
Molecular target: UniProt P19235
Sequence (whole entry): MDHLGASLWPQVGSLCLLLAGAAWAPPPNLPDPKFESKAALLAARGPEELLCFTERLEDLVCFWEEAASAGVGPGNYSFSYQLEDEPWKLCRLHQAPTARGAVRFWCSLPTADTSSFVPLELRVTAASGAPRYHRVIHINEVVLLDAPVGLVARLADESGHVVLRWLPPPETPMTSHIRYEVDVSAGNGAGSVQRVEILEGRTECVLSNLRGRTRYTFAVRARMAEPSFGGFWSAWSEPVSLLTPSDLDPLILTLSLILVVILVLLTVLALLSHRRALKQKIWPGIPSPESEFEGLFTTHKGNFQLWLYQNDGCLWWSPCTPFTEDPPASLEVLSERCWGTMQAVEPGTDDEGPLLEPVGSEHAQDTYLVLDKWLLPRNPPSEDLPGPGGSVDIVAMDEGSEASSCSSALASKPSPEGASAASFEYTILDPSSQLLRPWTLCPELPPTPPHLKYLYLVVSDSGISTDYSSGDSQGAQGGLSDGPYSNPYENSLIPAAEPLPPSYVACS
Assay: Compound was evaluated for inhibition of [125I]EPO binding to Erythropoietin receptor (EBP) at a concentration of 50 uM

[
  {
    "entry-smiles": "O=C(O)[C@H](CO)NC/C=C/c1cccc(Oc2ccccc2)c1",
    "subject-of-test": "UniProt P19235",
    "inhibition, %": 23
  },
  {
    "entry-smiles": "CC(C)(C)c1ccc(Oc2cccc(/C=C/CN(C/C=C/c3cccc(Oc4ccc(C(C)(C)C)cc4)c3)[C@@H](CCC(=O)O)C(=O)O)c2)cc1",
    "subject-of-test": "UniProt P19235",
    "inhibition, %": 78
  },
  {
    "entry-smiles": "O=C(O)CCC(=O)NCCCC[C@H](C(=O)NCCOCCOCCNC(=O)[C@H](CCCCNC(=O)CCC(=O)O)N(Cc1ccc(OCc2ccccc2)cc1)Cc1ccc(OCc2ccccc2)cc1)N(Cc1ccc(OCc2ccccc2)cc1)Cc1ccc(OCc2ccccc2)cc1",
    "subject-of-test": "UniProt P19235",
    "inhibition, %": 93
  },
  {
    "entry-smiles": "CC(C)(C)OC(=O)C[C@@H](C(=O)OC(C)(C)C)N(C/C=C/c1cccc(Oc2ccccc2)c1)C/C=C/c1cccc(Oc2ccccc2)c1",
    "subject-of-test": "UniProt P19235",
    "inhibition, %": 20
  },
  {
    "entry-smiles": "COC(=O)[C@H](CCCCNC(=O)OC(C)(C)C)N(Cc1cccc(OCc2ccccc2)c1)Cc1cccc(OCc2ccccc2)c1",
    "subject-of-test": "UniProt P19235",
    "inhibition, %": 7
  },
  {
    "entry-smiles": "O=C(O)C[C@@H](C(=O)O)N(C/C=C/c1cccc(Oc2ccccc2)c1)C/C=C/c1cccc(Oc2ccccc2)c1",
    "subject-of-test": "UniProt P19235",
    "inhibition, %": 81
  },
  {
    "entry-smiles": "O=C(O)CCC(=O)NCCCC[C@H](C(=O)NCCCCCCCCCCCCNC(=O)[C@H](CCCCNC(=O)CCC(=O)O)N(Cc1ccc(OCc2ccccc2)cc1)Cc1ccc(OCc2ccccc2)cc1)N(Cc1ccc(OCc2ccccc2)cc1)Cc1ccc(OCc2ccccc2)cc1",
    "subject-of-test": "UniProt P19235",
    "inhibition, %": 56
  },
  {
    "entry-smiles": "O=C(O)CCCC(=O)NCCCC[C@H](C(=O)NCCCOCCCCOCCCNC(=O)[C@H](CCCCNC(=O)CCCC(=O)O)N(Cc1ccc(OCc2ccccc2)cc1)Cc1ccc(OCc2ccccc2)cc1)N(Cc1ccc(OCc2ccccc2)cc1)Cc1ccc(OCc2ccccc2)cc1",
    "subject-of-test": "UniProt P19235",
    "inhibition, %": 82
  }
]

====

Let's look at some molecules and their measured pIC50.
Target: Erythropoietin receptor (Homo sapiens)
Experiment: Compound was evaluated for inhibition of [125I]-EPO binding to Erythropoietin receptor (EBP)
pIC50: −log10 of the molar value.
measurement-kind: pIC50

[
  {
    "entry-smiles": "COC(=O)[C@H](CCCCNS(C)(=O)=O)N(C/C=C/c1cccc(Oc2ccccc2)c1)C/C=C/c1cccc(Oc2ccccc2)c1",
    "numeric-result": 4.46
  },
  {
    "entry-smiles": "O=C(O)C[C@@H](C(=O)NCCCOCCOCCOCCCNC(=O)[C@H](CC(=O)O)N(Cc1ccc(OCc2ccccc2)cc1)Cc1ccc(OCc2ccccc2)cc1)N(Cc1ccc(OCc2ccccc2)cc1)Cc1ccc(OCc2ccccc2)cc1",
    "numeric-result": 4.55
  },
  {
    "entry-smiles": "COC(=O)[C@H](CCCCNC(N)=O)N(C/C=C/c1cccc(Oc2ccccc2)c1)C/C=C/c1cccc(Oc2ccccc2)c1",
    "numeric-result": 4.46
  },
  {
    "entry-smiles": "O=C(O)CCCC(=O)NCCCC[C@H](C(=O)NCCOCCOCCNC(=O)[C@H](CCCCNC(=O)CCCC(=O)O)N(Cc1ccc(OCc2ccccc2)cc1)Cc1ccc(OCc2ccccc2)cc1)N(Cc1ccc(OCc2ccccc2)cc1)Cc1ccc(OCc2ccccc2)cc1",
    "numeric-result": 5.82
  },
  {
    "entry-smiles": "O=C(O)CCCC(=O)NCCCC[C@H](C(=O)NCCCOCCCCOCCCNC(=O)[C@H](CCCCNC(=O)CCCC(=O)O)N(Cc1ccc(OCc2ccccc2)cc1)Cc1ccc(OCc2ccccc2)cc1)N(Cc1ccc(OCc2ccccc2)cc1)Cc1ccc(OCc2ccccc2)cc1",
    "numeric-result": 5.40
  }
]

====

Target: Erythropoietin receptor (Homo sapiens)
Assay: Compound was evaluated for inhibition of [125I]-EPO binding to Erythropoietin receptor (EBP)
pIC50: −log10 of the molar value.
Threshold rule: pIC50 greater than or equal to 5 is y; below that, n.

[
  {
    "entry-smiles": "CC(C)(C)c1ccc(Oc2cccc(/C=C/CN(C/C=C/c3cccc(Oc4ccc(C(C)(C)C)cc4)c3)[C@@H](CCC(=O)O)C(=O)O)c2)cc1",
    "subject-of-test": "Erythropoietin receptor (Homo sapiens)",
    "class-label": "n"
  },
  {
    "entry-smiles": "O=C(O)CCC(=O)NCCCC[C@H](C(=O)NCCOCCOCCNC(=O)[C@H](CCCCNC(=O)CCC(=O)O)N(Cc1ccc(OCc2ccccc2)cc1)Cc1ccc(OCc2ccccc2)cc1)N(Cc1ccc(OCc2ccccc2)cc1)Cc1ccc(OCc2ccccc2)cc1",
    "subject-of-test": "Erythropoietin receptor (Homo sapiens)",
    "class-label": "y"
  },
  {
    "entry-smiles": "O=C(O)C[C@H](C(=O)NCCCOCCCCOCCCNC(=O)[C@H](CC(=O)O)N(Cc1ccc(OCc2ccccc2)cc1)Cc1ccc(OCc2ccccc2)cc1)N(Cc1ccc(OCc2ccccc2)cc1)Cc1ccc(OCc2ccccc2)cc1",
    "subject-of-test": "Erythropoietin receptor (Homo sapiens)",
    "class-label": "n"
  },
  {
    "entry-smiles": "O=C(O)CCCC(=O)NCCCC[C@H](C(=O)NCCCCCCCCCCCCNC(=O)[C@H](CCCCNC(=O)CCCC(=O)O)N(Cc1ccc(OCc2ccccc2)cc1)Cc1ccc(OCc2ccccc2)cc1)N(Cc1ccc(OCc2ccccc2)cc1)Cc1ccc(OCc2ccccc2)cc1",
    "subject-of-test": "Erythropoietin receptor (Homo sapiens)",
    "class-label": "n"
  },
  {
    "entry-smiles": "C[C@@H](C(=O)O)N(C/C=C/c1cccc(Oc2ccccc2)c1)C/C=C/c1cccc(Oc2ccccc2)c1",
    "subject-of-test": "Erythropoietin receptor (Homo sapiens)",
    "class-label": "n"
  },
  {
    "entry-smiles": "O=C(O)CC[C@@H](C(=O)O)N(C/C=C/c1cccc(Oc2ccccc2)c1)C/C=C/c1cccc(Oc2ccccc2)c1",
    "subject-of-test": "Erythropoietin receptor (Homo sapiens)",
    "class-label": "n"
  },
  {
    "entry-smiles": "O=C(O)CCC(=O)NCCCC[C@@H](C(=O)NCCCOCCOCCOCCCNC(=O)[C@H](CCCCNC(=O)CCC(=O)O)N(Cc1ccc(OCc2ccccc2)cc1)Cc1ccc(OCc2ccccc2)cc1)N(Cc1ccc(OCc2ccccc2)cc1)Cc1ccc(OCc2ccccc2)cc1",
    "subject-of-test": "Erythropoietin receptor (Homo sapiens)",
    "class-label": "y"
  },
  {
    "entry-smiles": "O=C(O)CCC(=O)NCCCC[C@H](C(=O)NCCCCCCCCCCCCNC(=O)[C@H](CCCCNC(=O)CCC(=O)O)N(Cc1ccc(OCc2ccccc2)cc1)Cc1ccc(OCc2ccccc2)cc1)N(Cc1ccc(OCc2ccccc2)cc1)Cc1ccc(OCc2ccccc2)cc1",
    "subject-of-test": "Erythropoietin receptor (Homo sapiens)",
    "class-label": "n"
  },
  {
    "entry-smiles": "O=C(O)CCC(=O)NCCCC[C@H](C(=O)NCCCOCCCCOCCCNC(=O)[C@H](CCCCNC(=O)CCC(=O)O)N(Cc1ccc(OCc2ccccc2)cc1)Cc1ccc(OCc2ccccc2)cc1)N(Cc1ccc(OCc2ccccc2)cc1)Cc1ccc(OCc2ccccc2)cc1",
    "subject-of-test": "Erythropoietin receptor (Homo sapiens)",
    "class-label": "y"
  },
  {
    "entry-smiles": "O=C(O)CC[C@@H](C(=O)O)N(C/C=C/c1cccc(Oc2cccc(C(F)(F)F)c2)c1)C/C=C/c1cccc(Oc2cccc(C(F)(F)F)c2)c1",
    "subject-of-test": "Erythropoietin receptor (Homo sapiens)",
    "class-label": "n"
  },
  {
    "entry-smiles": "NCCCC[C@H](C(=O)NCCOCCOCCNC(=O)[C@H](CCCCN)N(Cc1ccc(OCc2ccccc2)cc1)Cc1ccc(OCc2ccccc2)cc1)N(Cc1ccc(OCc2ccccc2)cc1)Cc1ccc(OCc2ccccc2)cc1",
    "subject-of-test": "Erythropoietin receptor (Homo sapiens)",
    "class-label": "y"
  },
  {
    "entry-smiles": "COC(=O)[C@H](CO)N(C/C=C/c1cccc(Oc2ccccc2)c1)C/C=C/c1cccc(Oc2ccccc2)c1",
    "subject-of-test": "Erythropoietin receptor (Homo sapiens)",
    "class-label": "n"
  }
]

Data origin, for the record: ChEMBL document CHEMBL1133297
